experimental system: porcine pancreatic elastase (PPE) (Sus scrofa)
Construct: from tissue; host or cells: porcine pancreas (from the name)
Sequence (P00772 27-266): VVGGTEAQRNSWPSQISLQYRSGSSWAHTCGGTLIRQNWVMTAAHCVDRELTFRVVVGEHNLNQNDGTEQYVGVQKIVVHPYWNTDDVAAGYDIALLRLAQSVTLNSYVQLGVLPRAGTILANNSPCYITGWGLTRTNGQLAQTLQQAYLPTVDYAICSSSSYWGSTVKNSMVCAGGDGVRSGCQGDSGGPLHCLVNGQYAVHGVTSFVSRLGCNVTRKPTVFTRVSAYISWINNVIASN
assay protocol: Inactivation of porcine pancreatic elastase (PPE)
Type: biochemical
condition: Table IV; pH 7.5, 25° C; [I] 0.01 to 0.51 mM; read-out: kobs/[I]
Where a name gives a salt, the structure may show the parent alone.
reported metric: kinact/KI (M⁻¹ s⁻¹)
A number alone suffices; assume M⁻¹ s⁻¹.

1. N=C(N)SCCCOc1oc(=O)c2ccccc2c1Cl; 70
2. COc1cc2ccc(NC(=N)N)cc2c(=O)o1 [7-guanidino-3-methoxyisocoumarin]; 55
3. N=C(N)SCCCOc1oc(=O)c2cc(N)ccc2c1Cl; 1
4. CCOc1cc2ccc(NC(=N)N)cc2c(=O)o1 [7-guanidino-3-ethoxyisocoumarin]; 86
5. NCCCOc1cc2ccccc2c(=O)o1 [3-(3-aminopropoxy)isocoumarin]; 2.3

// kinact/KI lookup, key: CCOc1oc(=O)c2cc(NC(=N)N)ccc2c1Cl [7-guanidino-3-ethoxy-4-chloroisocoumarin, 7-guanidino-4-chloro-3-ethoxyisocoumarin]
2300

For `N=C(N)Nc1ccc2c(Cl)c(OCCc3ccccc3)oc(=O)c2c1` , what is its reported kinact/KI?
5.7

For COc1oc(=O)c2cc(NC(=O)[C@H](C)N)ccc2c1Cl [Hydrochloride] , what is its reported kinact/KI?
1610

* * *

experimental system: sheep lung lymph tryptase
assay protocol: Inactivation rate of sheep lung lymph tryptase
Format: biochemical
condition: Table III; pH 7.5, 25° C; [I] 10 to 460 μM
reported metric: kobs/[I]

Here's what some known entries look like.
1. N=C(N)SCCCOc1oc(=O)c2cc(N)ccc2c1Cl; 710 M⁻¹ s⁻¹
2. N=C(N)SCCCOc1oc(=O)c2ccccc2c1Cl; 230 M⁻¹ s⁻¹
3. O=c1oc(Cl)c(Cl)c2ccccc12 [3,4-dichloroisocoumarin, reference compound]; 39 M⁻¹ s⁻¹
4. NCCCOc1oc(=O)c2ccccc2c1Cl; 18 M⁻¹ s⁻¹

Find the recorded kobs/[I] belonging to `COc1cc2ccc(NC(=N)N)cc2c(=O)o1` and report it.
53 M⁻¹ s⁻¹

Tell me the measured kobs/[I] of `COc1oc(=O)c2cc(NC(=N)N)ccc2c1Cl` , please.
620 M⁻¹ s⁻¹

I'd like to know its kobs/[I]. The molecule in question is `NCCCOc1cc2ccccc2c(=O)o1`
8.1 M⁻¹ s⁻¹

Entry `N=C(N)Nc1ccc2c(Cl)c(OCCc3ccccc3)oc(=O)c2c1` has what kobs/[I]?
3,900 M^-1 s^-1

Consider the molecule `CCOc1cc2ccc(NC(=N)N)cc2c(=O)o1` and give its measured kobs/[I].
150 M⁻¹ s⁻¹

// lookup kobs/[I] for `N=C(N)Nc1ccc2cc(OCCc3ccccc3)oc(=O)c2c1`
150 M⁻¹ s⁻¹

Look up kobs/[I] for this molecule: `N=C(N)SCCOc1oc(=O)c2ccccc2c1Cl`
290 M⁻¹ s⁻¹

Any idea what its kobs/[I] is? The molecule is `CCOc1oc(=O)c2cc(NC(=N)N)ccc2c1Cl`
2,200 M^-1 s^-1

* * *

experimental system: bovine thrombin (Bos taurus)
Construct: bovine thrombin
assay protocol: Inactivation rate of bovine thrombin
Assay type: biochemical
condition: Table I; pH 7.5, 25° C; [I] 0.3 to 400 μM; read-out: kobs/[I]
log10 of kinact/KI values for the compounds below.
The figures below represent log10 of kinact/KI, where kinact/KI is stated in M⁻¹ s⁻¹.

1) N=C(N)SCCCOc1oc(=O)c2ccccc2c1Cl; 3.16
2) NCCCOc1oc(=O)c2ccccc2c1Cl [3-(3-aminopropoxy)-4-chloroisocoumarin]; 2.54
3) COc1cc2ccc(NC(=N)N)cc2c(=O)o1 [7-guanidino-3-methoxyisocoumarin]; 3.69
4) N=C(N)SCCOc1oc(=O)c2ccccc2c1Cl; 3.67
5) NCCCOc1cc2ccccc2c(=O)o1 [3-(3-aminopropoxy)isocoumarin]; 0.48
6) CCOc1cc2ccc(NC(=N)N)cc2c(=O)o1 [7-guanidino-3-ethoxyisocoumarin]; 3.57
7) N=C(N)SCCCOc1oc(=O)c2cc(N)ccc2c1Cl; 2.80
8) COc1oc(=O)c2cc(NC(=O)CN)ccc2c1Cl; 1.71

Let us move to another entry and its log10 of kinact/KI.
Need log10 of kinact/KI, item `N=C(N)Nc1ccc2cc(OCCc3ccccc3)oc(=O)c2c1`
3.76
